- test.summary: Inhibition of class 1 HDAC in human NB4 cells assessed as levels of histone H3 acetylation at lysine 9/14 at 5 uM after 30 hrs by Western blot analysis relative to control
Catalogue of FC values

{"molecule": "CN1CCC2(CC1)CN(Cc1ccc(C(=O)NO)cc1)c1ccccc12", "FC": 2.44}
{"molecule": "CN1CCc2c(c3ccccc3n2Cc2ccc(C(=O)NO)cc2)C1 [TUBASTATIN A]", "FC": 0.97}
{"molecule": "CC(C)(C)OC(=O)N1CCC2(CC1)CN(Cc1ccc(C(=O)NO)cc1)c1ccccc12", "FC": 0.96}
{"molecule": "O=C(NO)c1ccc(CN2CC3(CCCCC3)c3ccccc32)cc1", "FC": 2.58}
